Listing of entries alongside the reported z-score.
# Assay target: NADPH oxidase 4 (Homo sapiens)
# Test description: NOX4-dependent H2O2 signal modulators, primary screen, NOX inhibitor project, cell-based, HEK293-NOX4, tetracycline-induced, Amplex Red fluorescence (AID 1160)
# Details: 45 min, higher = more signal, called active from +8 up or from −8 down
Endpoint: z-score

[[record]]
chemical_string = "Cc1ccc([C@@H]2CC=C(C(=O)O)[C@H](c3ccccc3)N2S(=O)(=O)c2ccc(C)cc2)cc1"
measured_value = -1.2

[[record]]
chemical_string = "CCOC(=O)C1=CC[C@@H](c2ccccc2)N(S(=O)(=O)c2ccc(C)cc2)[C@H]1C"
measured_value = -0.291

[[record]]
chemical_string = "CCC#CCN(Cc1ccccc1Br)[C@H](/C=C/c1ccccc1)[C@@H](O)Cc1ccccc1"
measured_value = 0.0785

[[record]]
chemical_string = "C=CCN1C(=O)[C@@]2(O[C@@H](CCn3cc([C@H](O)c4ccccc4)nn3)[C@H]([Si](C)(C)c3ccc(OC)cc3)[C@H]2C)c2cc(N3CCOC3=O)ccc21"
measured_value = 1.18

[[record]]
chemical_string = "COC(=O)C(CC#Cc1ccc2c(c1)[C@]1(C(=O)N2)[C@H](C(=O)N2CCCCCCC2)[C@H]2C(=O)O[C@H](c3ccccc3)[C@H](c3ccccc3)N2[C@@H]1c1ccc(O)cc1)C(=O)OC"
measured_value = 0.264

[[record]]
chemical_string = "C=C[C@H](OC)[C@@H](OC(=O)Nc1ccc(SC)cc1)c1ccc(O)c(F)c1"
measured_value = -1.66

[[record]]
chemical_string = "COC(=O)C[C@H]1O[C@]2(C(=O)N(C)c3ccccc32)[C@@H](C)[C@@H]1[Si](C)(C)c1ccc(OC)cc1"
measured_value = 0.345


----------
# Test description: HepG2 cell viability effects, profiling panel, calcein-AM fluorescence, 48 h, basal (AID 1164); further: test concentration not given here
# Details: higher = more signal
Hi, to clarify the labels: satisfied covers z-score from -0.5 upward, not satisfied covers anything below -0.5.

[[record]]
molecule = "Cc1ccc(S[C@]2(C(=O)NCCCN(C)C)CC(=O)N(C3CCCCC3)[C@@H]2c2ccc(CO)cc2I)cc1"
class_name = "not satisfied"

[[record]]
molecule = "CC(C)[C@H]1NC(=O)[C@@]23C(=O)N[C@@H](Cc4ccccc4)C2[C@H](C)[C@@]2(C)O[C@H]2C3/C=C/C/C=C\\CNC(=O)[C@H](C)NC1=O (some centres not stated)"
class_name = "not satisfied"

[[record]]
molecule = "C=CCC(OC(C)=O)[C@@H]1[C@@H](N(Cc2cccc3ccccc23)C(=O)Cc2ccc(F)cc2)c2cc(OCCCO)ccc2N1C(=O)Cc1ccc2ccccc2c1 (some centres not stated)"
class_name = "satisfied"

[[record]]
molecule = "COc1cc(CO)cc(I)c1O[C@H]1C=C(C(=O)NCCO)C[C@@H](NCCc2c[nH]c3ccccc23)[C@@H]1O"
class_name = "satisfied"

[[record]]
molecule = "Cc1ccc(N2C(=O)c3ccccc3[C@](C)(C(=O)O)[C@@H]2c2ccc(CO)cc2)nc1"
class_name = "satisfied"

[[record]]
molecule = "CC(=O)NCCCC[C@@H]1NC(=O)[C@@H]2C[C@H](C(=O)NCc3ccc(F)cc3)[C@H](c3cccc(OCCO)c3)N2C1=O"
class_name = "satisfied"


Reference source for all entries: PubChem BioAssay
